Value source: ChEMBL document CHEMBL3407373

Please provide measured inhibition in vivo at 10 µmol/kg for the entries that follow.
# Test system: Mus musculus
# EXPERIMENTAL PROTOCOL: Antiinflammatory activity against ICR mouse ear edema model assessed as inhibition of xylene-induced edema at 10 umol/kg, po administered 30 mins prior to xylene challenge measured after 2 hrs relative to vehicle-treated control
# Assay type: functional
Value expressed in %; do not type the unit.

The compound listed as CC1(C)COC(CCN[C@@H](Cc2c[nH]c3ccccc23)C(=O)N[C@H]2C(O)O[C@H](CO)[C@@H](O)[C@@H]2O)OC1 (stereo partly specified) has a reported inhibition in vivo at 10 µmol/kg of 80.3

In plain terms, CC(=O)OC[C@H]1O[C@H](OC(C)=O)[C@H](NC(=O)[C@H](C)NCCC2OCC(C)(C)CO2)[C@@H](OC(C)=O)[C@@H]1OC(C)=O has a documented inhibition in vivo at 10 µmol/kg of 84.2

# compound CC(=O)OC[C@H]1O[C@H](OC(C)=O)[C@H](NC(=O)[C@@H](NCCC2OCC(C)(C)CO2)C(C)C)[C@@H](OC(C)=O)[C@@H]1OC(C)=O ; its inhibition in vivo at 10 µmol/kg = 70.6

Briefly, inhibition in vivo at 10 µmol/kg measured for CC1(C)COC(CCN[C@@H](Cc2c[nH]c3ccccc23)C(=O)N[C@H]2[C@@H](OCc3ccccc3)O[C@H](COCc3ccccc3)[C@@H](OCc3ccccc3)[C@@H]2OCc2ccccc2)OC1 : 80.1

Query CC1(C)COC(CCN[C@@H](Cc2ccccc2)C(=O)N[C@H]2C(O)O[C@H](CO)[C@@H](O)[C@@H]2O)OC1 (stereo partly specified) yields inhibition in vivo at 10 µmol/kg of 81.9

# inhibition in vivo at 10 µmol/kg of C[C@H](NCCC1OCC(C)(C)CO1)C(=O)N[C@H]1[C@@H](OCc2ccccc2)O[C@H](COCc2ccccc2)[C@@H](OCc2ccccc2)[C@@H]1OCc1ccccc1 = 90.3

* * *

# Tested on: Mus musculus
# EXPERIMENTAL PROTOCOL: Antiinflammatory activity against ICR mouse ear edema model assessed as inhibition of xylene-induced edema at 10 umol/kg, po administered 30 mins prior to xylene challenge measured after 2 hrs relative to vehicle-treated control
# Format: functional
Hi there, I'd appreciate the recorded inhibition in vivo at 10 µmol/kg for every entry that follows.
Quick reminder: number only, in %, skip the unit.

In plain terms, CC(C)C[C@H](NCCC1OCC(C)(C)CO1)C(=O)N[C@H]1C(O)O[C@H](CO)[C@@H](O)[C@@H]1O (stereo partly drawn) has a documented inhibition in vivo at 10 µmol/kg of 81.8

Just so you know, measured inhibition in vivo at 10 µmol/kg for CC1(C)COC(CCN[C@@H](Cc2ccccc2)C(=O)N[C@H]2[C@@H](OCc3ccccc3)O[C@H](COCc3ccccc3)[C@@H](OCc3ccccc3)[C@@H]2OCc2ccccc2)OC1 came out at 87.1

Briefly, inhibition in vivo at 10 µmol/kg measured for CC(C)C[C@H](NCCC1OCC(C)(C)CO1)C(=O)N[C@H]1[C@@H](OCc2ccccc2)O[C@H](COCc2ccccc2)[C@@H](OCc2ccccc2)[C@@H]1OCc1ccccc1 : 76.7

* * *

# Tested on: Mus musculus
# EXPERIMENTAL PROTOCOL: Antiinflammatory activity against ICR mouse ear edema model assessed as inhibition of xylene-induced edema at 10 umol/kg, po administered 30 mins prior to xylene challenge measured after 2 hrs relative to vehicle-treated control
# Format: functional
Structures can show the parent of a compound that is named as a salt.
OBSERVABLE: inhibition in vivo at 10 µmol/kg (%)
Output spec: scalar in %, unitless text.

Simply: CC(C)[C@H](NCCC1OCC(C)(C)CO1)C(=O)N[C@H]1C(O)O[C@H](CO)[C@@H](O)[C@@H]1O (stereo not given in full) , Mus musculus, inhibition in vivo at 10 µmol/kg = 85.1

For CC(C)[C@H](NCCC1OCC(C)(C)CO1)C(=O)N[C@H]1[C@@H](OCc2ccccc2)O[C@H](COCc2ccccc2)[C@@H](OCc2ccccc2)[C@@H]1OCc1ccccc1 on Mus musculus, measured inhibition in vivo at 10 µmol/kg was 86.2

Reported Mus musculus inhibition in vivo at 10 µmol/kg for item N[C@H]1C(O)O[C@H](CO)[C@@H](O)[C@@H]1O (stereo not given in full) [GLUCOSAMINE HYDROCHLORIDE] was 64.3

Reported Mus musculus inhibition in vivo at 10 µmol/kg for item CC(=O)OC[C@H]1O[C@H](OC(C)=O)[C@H](NC(=O)[C@H](Cc2c[nH]c3ccccc23)NCCC2OCC(C)(C)CO2)[C@@H](OC(C)=O)[C@@H]1OC(C)=O was 80.7

Value sought: inhibition in vivo at 10 µmol/kg, system Mus musculus, item CC(=O)OC[C@H]1O[C@H](OC(C)=O)[C@H](NC(=O)[C@H](CC(C)C)NCCC2OCC(C)(C)CO2)[C@@H](OC(C)=O)[C@@H]1OC(C)=O . Result: 86.6

Tested on Mus musculus, the item CC[C@H](C)[C@H](NCCC1OCC(C)(C)CO1)C(=O)N[C@H]1[C@@H](OCc2ccccc2)O[C@H](COCc2ccccc2)[C@@H](OCc2ccccc2)[C@@H]1OCc1ccccc1 showed inhibition in vivo at 10 µmol/kg equal to 81.6

Per the reported Mus musculus data, C[C@H](NCCC1OCC(C)(C)CO1)C(=O)N[C@H]1C(O)O[C@H](CO)[C@@H](O)[C@@H]1O (stereo not given in full) has inhibition in vivo at 10 µmol/kg of 86.8

Case CC(=O)OC[C@H]1O[C@H](OC(C)=O)[C@H](NC(=O)[C@H](Cc2ccccc2)NCCC2OCC(C)(C)CO2)[C@@H](OC(C)=O)[C@@H]1OC(C)=O , Mus musculus, inhibition in vivo at 10 µmol/kg recorded as 86.8

Param item: CC[C@H](C)[C@H](NCCC1OCC(C)(C)CO1)C(=O)N[C@H]1[C@@H](OC(C)=O)O[C@H](COC(C)=O)[C@@H](OC(C)=O)[C@@H]1OC(C)=O ; param system: Mus musculus; output inhibition in vivo at 10 µmol/kg: 79.8

# lookup: CC[C@H](C)[C@H](NCCC1OCC(C)(C)CO1)C(=O)N[C@H]1C(O)O[C@H](CO)[C@@H](O)[C@@H]1O (stereo not given in full) on Mus musculus, inhibition in vivo at 10 µmol/kg = 88.7
